B1: Glucocorticoid receptor, residues 419 to 494; numbered along this chain, P04150 (parent)
chain: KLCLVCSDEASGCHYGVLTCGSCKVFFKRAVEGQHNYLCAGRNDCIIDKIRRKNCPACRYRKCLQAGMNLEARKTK

# Variants of: B1
# method notes: abundance fitness (aPCA) (normalised: wild type 0, dead -1); higher = more abundant; growth selection in yeast, the domain comes from the species named
# stated conditions: Homo sapiens
Each entry below lists one item and its recorded abundance fitness value.
Respond using a number only.

Worked set:
## Input Give abundance fitness for A30D
## Output -0.701

## Input Give abundance fitness for C39M
## Output -0.998

## Input Give abundance fitness for F27I
## Output -0.26

## Input Give abundance fitness for K74T
## Output -0.034

## Input Give abundance fitness for A72Q
## Output 0.008

## Input Give abundance fitness for L70D
## Output -0.033

## Input Give abundance fitness for K74V
## Output -0.008

## Input Give abundance fitness for I50V
## Output 0.013

---
## Input Give abundance fitness for F26M
## Output -0.793

## Input Give abundance fitness for Y60W
## Output -0.036

## Input Give abundance fitness for L18W
## Output -0.01

## Input Give abundance fitness for C20Q
## Output -1.04

## Input Give abundance fitness for R73S
## Output 0.003

## Input Give abundance fitness for R51W
## Output -0.083

## Input Give abundance fitness for Q34F
## Output -0.256

## Input Give abundance fitness for A57N
## Output -0.266

## Input Give abundance fitness for K24A
## Output -0.019
